I'd be grateful if you could share measured IC50 for these entries.
Tested on: V79/S
assay method text: Colony formation (proliferation) inhibition, sensitive Chinese hamster cells (A-I Part 1)
Type: cell-based
measurement setup: Cricetulus griseus, 216 h
*1 amine or outer side, *2 acyl side, *3 side chain or, on linkers, in order; H or OH if unused. Where a SMILES comes first, the peptide text is derived from it. Bridges are numbered along the chain shown (N, C = ends). Roman numbers before positions name the chains, in order. [ ]: non-standard residue; d: D form. Actinocin(9to1) = Cc1c2oc3c(C)ccc(C(=O)[*:1])c3nc-2c(C(=O)[*:2])c(N)c1=O; NMeV = CN[C@H](C(=O)O)C(C)C; Sar = CNCC(=O)O
Dear colleague, please return just the value in µg/mL, with no unit written.

IC50 for V79/S with input CC[C@@]1(O)C[C@H](O[C@H]2C[C@H](N(C)C)[C@H](O[C@H]3C[C@H](O)[C@H](O[C@H]4CCC(=O)[C@H](C)O4)[C@H](C)O3)[C@H](C)O2)c2c(cc3c(c2O)C(=O)c2c(O)cccc2C3=O)[C@H]1C(=O)OC equals 0.037

Entry Cc1c2oc3c(C)ccc(C(=O)N[C@@H]4C(=O)N[C@H](C(C)C)C(=O)N5CCC[C@H]5C(=O)N(C)CC(=O)N(C)[C@@H](C(C)C)C(=O)O[C@@H]4C)c3nc-2c(C(=O)N[C@@H]2C(=O)N[C@H](C(C)C)C(=O)N3CCC[C@H]3C(=O)N(C)CC(=O)N(C)[C@@H](C(C)C)C(=O)O[C@@H]2C)c(N)c1=O [ACD, actinomycin D] (I: T[dV]P[Sar][NMeV] / II: T[dV]P[Sar][NMeV]; ester I:1-I:C, II:1-II:C; linker I:N-II:N via Actinocin(9to1)) under V79/S had IC50 of 0.017

The reported V79/S IC50 of CN(Cc1cnc2nc(N)nc(N)c2n1)c1ccc(C(=O)N[C@@H](CCC(=O)O)C(=O)O)cc1 [MTX, methotrexate] is 0.017

Entry COc1cccc2c1C(=O)c1c(O)c3c(c(O)c1C2=O)C[C@@](O)(C(=O)CO)C[C@@H]3O[C@H]1C[C@H](N)[C@H](O)[C@H](C)O1 , V79/S data, IC50 value: 0.057

----------
Test system: V79/ADM
assay method text: Anti-cancer activity potentiating action, colony formation, V79/ADM resistant cells (A-III)
Type: cell-based, Chinese hamster
measurement setup: V79/ADM; with compound (I) 5 μg/ml
observation type: Potentiation activity (times)
Only the number, expressed in times, is required.

Entry Nc1ccn([C@@H]2O[C@H](CO)[C@@H](O)[C@@H]2O)c(=O)n1 [Ara-C, cytarabin] ; Potentiation activity = 6.3

Record Cc1ncc(CNC(=O)N(CCCl)N=O)c(N)n1 [ACNU, nimustine] , field Potentiation activity: 3.20

Note to self: Potentiation activity recorded for [NH2][Pt]([NH2])([Cl])[Cl] [CDDP, cisplatin] was 2.5

So, CO[C@@]12[C@H](COC(N)=O)C3=C(C(=O)C(C)=C(N)C3=O)N1C[C@@H]1N[C@@H]12 [MMC, mitomycin C] ? Its Potentiation activity was 5.20

Record O=c1[nH]cc(F)c(=O)[nH]1 [Example 5-FU, 5-fluorouracil] . Reported Potentiation activity: 11.6

The origin of these recorded values is patent US5004756A.
